test system: CLZ3 (HCA2 human fibroblast dual HR-NHEJ reporter); assay: HR repair efficiency (tdTomato+ cells) relative to control (log10 fold); higher = more homologous recombination; details: 5 µM; doxycycline 0.5 ug/mL

COMPOUND	HR repair efficiency (log10)
COc1cc2c(cc1OC)[C@@H](Cc1ccc(Oc3cc(C[C@@H]4c5cc(OC)c(OC)cc5CCN4C)ccc3O)cc1)N(C)CC2	-0.294
O=c1c(-c2ccc(O[C@@H]3O[C@H](CO)[C@@H](O)[C@H](O)[C@H]3O)cc2)coc2cc(O)cc(O)c12 [Sophoricoside]	0.0013
COc1cc(OC)c(CCC(=O)c2ccc(O)cc2)c(OC)c1	0.0988
COc1cc2oc(=O)ccc2c(OC)c1C[C@@H](O)C(C)(C)O	0.018
C[C@@H]1O[C@@H](O[C@H]2C(=O)c3c(O)cc(O)cc3O[C@@H]2c2ccc(O)c(O)c2)[C@H](O)[C@H](O)[C@H]1O	0.109
O=C(/C=C/c1ccc(O)c(O)c1)O[C@H]1[C@H](O)C[C@](O)(C(=O)O)C[C@H]1O	0.168
C[C@H](CCC(=O)O)[C@H]1CC[C@H]2[C@@H]3CC[C@@H]4C[C@H](O)CC[C@]4(C)[C@H]3C[C@H](O)[C@]12C	0.0026
Oc1ccc2c(c1)OC[C@]1(O)Cc3cc(O)c(O)cc3[C@H]21	-0.00638
C=C(CC[C@@H](C(=O)O)[C@H]1[C@H](O)C[C@@]2(C)C3=C(CC[C@]12C)[C@@]1(C)CC[C@H](OC(C)=O)C(C)(C)[C@@H]1CC3)C(C)C	0.0591
C=C(C)[C@@H]1CC[C@]2(C(=O)O)CC[C@]3(C)[C@H](CC[C@@H]4[C@@]5(C)CCC(=O)C(C)(C)[C@@H]5CC[C@]43C)[C@@H]12	0.0487
O=C(/C=C/c1ccc(O)c(O)c1)O[C@@H]1CC(O)(C(=O)O)C[C@@H](OC(=O)/C=C/c2ccc(O)c(O)c2)C1O (some centres undefined)	0.0109
O=c1c(-c2ccc(O)cc2)coc2cc(O[C@@H]3O[C@H](CO)[C@@H](O)[C@H](O)[C@H]3O)ccc12	0.03
COc1cc(C(=O)OCCCCNC(=N)N)cc(OC)c1O	0.0155
OC[C@@H]1O[C@@H](OC[C@H]2O[C@@H](OC/C=C/c3ccccc3)[C@H](O)[C@@H](O)[C@@H]2O)[C@H](O)[C@H]1O	0.118

###

test system: CLZ3 (HCA2 human fibroblast dual HR-NHEJ reporter); experiment: HR repair efficiency (tdTomato+ cells) relative to control (log10 fold); higher = more homologous recombination; settings: 5 µM; doxycycline 0.5 ug/mL
ASSAY_METRIC: HR repair efficiency (log10)

COMPOUND	ASSAY_METRIC	MEASURED_NUMBER
O=c1oc2c(O)c(O)cc3c(=O)oc4c(O)c(O)cc1c4c23 [Ellagic Acid]	HR repair efficiency (log10)	-0.174
COc1cc(-c2oc3cc(O)cc(O)c3c(=O)c2O[C@@H]2O[C@H](CO)[C@@H](O)[C@H](O)[C@H]2O[C@@H]2O[C@@H](C)[C@H](O)[C@@H](O)[C@H]2O)ccc1O [Isorhamnetin-3-O-Nehesperidine]	HR repair efficiency (log10)	-0.0649
CC1=C2C(=O)O[C@@H](c3ccoc3)[C@]2(C)CCC1 [Fraxinellone]	HR repair efficiency (log10)	0.113
C[C@@H]1O[C@@H](O[C@H]2[C@H](O[C@H]3CC[C@@]4(C)[C@@H](CC[C@]5(C)[C@@H]4CC=C4[C@@H]6CC(C)(C)CC[C@]6(C(=O)O)CC[C@]45C)[C@]3(C)CO)OC[C@H](O)[C@@H]2O)[C@H](O)[C@H](O)[C@H]1O [α-Hederin]	HR repair efficiency (log10)	-0.192
CC(C)=C1CC[C@@H](C)CC1=O [Pulegone]	HR repair efficiency (log10)	-0.0589
COc1cc2c(cc1OC)[C@@H]1Cc3ccc(OC)c(OC)c3CN1CC2 [Tetrahydropalmatine]	HR repair efficiency (log10)	0.0375
CC[C@]12CCCN3CCc4c(n(c5ccccc45)[C@@](O)(C(=O)OC)C1)[C@@H]32 [Vincamine]	HR repair efficiency (log10)	0.0346
COc1ccc(-c2coc3cc(O)ccc3c2=O)cc1 [Formononetin]	HR repair efficiency (log10)	0.128
COc1c(O[C@@H]2O[C@H](CO)[C@@H](O)[C@H](O)[C@H]2O)cc2occ(-c3ccc(O)cc3)c(=O)c2c1O [Tectoridin]	HR repair efficiency (log10)	0.192
CC1=C[C@]2(O)O[C@@]3(CC2=C(C)C)[C@@H](C)CC[C@@H]13 [Curcumenol]	HR repair efficiency (log10)	0.132
C/C=C/C#CC#C[C@@H](O)[C@@H](/C=C/CCCO)O[C@@H]1O[C@H](CO)[C@@H](O)[C@H](O)[C@H]1O [Lobetyolin]	HR repair efficiency (log10)	0.131
COc1c2ccoc2cc2oc(=O)ccc12 [Bergapten]	HR repair efficiency (log10)	0.125
OC[C@H]1O[C@@H](Oc2ccc(O)cc2)[C@H](O)[C@@H](O)[C@@H]1O [Arbutin]	HR repair efficiency (log10)	0.0689
Cc1c(O)cc2c(c1O)C(=O)c1ccc(O)c(O)c1C2=O [3-Hydroxymorindone]	HR repair efficiency (log10)	0.0716
CC1(C)CC[C@]2(C(=O)O)CCC3=C([C@@H](CCl)C[C@@H]4[C@@]5(C)C[C@H](O)[C@H](O)[C@@](C)(C(=O)O)[C@@H]5CC[C@@]34C)[C@@H]2C1 [Tenuigenin]	HR repair efficiency (log10)	0.0517

###

tested on: CLZ3 (HCA2 human fibroblast dual HR-NHEJ reporter); assay: NHEJ repair efficiency (GFP+ cells) relative to control (log10 fold); higher = more non-homologous end joining; conditions: 5 µM; doxycycline 0.5 ug/mL
Listed next: entries and their corresponding NHEJ repair efficiency (log10).

COMPOUND	NHEJ repair efficiency (log10)
CC(C)(O)[C@@H]1CC[C@](C)([C@H]2[C@@H](O)C[C@@]3(C)[C@@H]4C[C@H](O)[C@H]5C(C)(C)[C@@H](O)CC[C@@]56C[C@@]46CC[C@]23C)O1 [Cycloastragenol]	-0.045
CC[C@]12CCCN3CCc4c(n(c5ccccc45)[C@@](O)(C(=O)OC)C1)[C@@H]32 [Vincamine]	0.104
O=C(O)[C@H]1O[C@@H](Oc2cc3oc(-c4ccc(O)cc4)cc(=O)c3c(O)c2O)[C@H](O)[C@@H](O)[C@@H]1O [Scutellarin]	-0.122
C[C@H]1O[C@@H](O[C@H]2CC[C@@]3(C)[C@@H](CC[C@]4(C)[C@@H]3C=C[C@]35OC[C@@]6(CCC(C)(C)C[C@H]63)[C@@H](O)C[C@]54C)[C@]2(C)CO)[C@H](O)[C@@H](O[C@@H]2O[C@H](CO)[C@@H](O)[C@H](O)[C@H]2O)[C@H]1O [Saikosaponin a]	-0.305
C=C1CC[C@@H]2[C@](C)(CO)[C@H](O)CC[C@@]2(C)[C@@H]1C/C=C1/C(=O)OC[C@H]1O [Andrographolide]	0.0511

###

system: CLZ3 (HCA2 human fibroblast dual HR-NHEJ reporter); test: HR repair efficiency (tdTomato+ cells) relative to control (log10 fold); higher = more homologous recombination; conditions: 5 µM; doxycycline 0.5 ug/mL
Class definitions on HR repair efficiency (log10): low bracket: < -0.001; middle bracket: ≥ -0.001 and < 0.09; high bracket: ≥ 0.09

MOLECULE	GROUP
COc1cc2c(cc1OC)[C@@H]1Cc3ccc(OC)c(OC)c3CN1CC2 [Rotundine]	high bracket
COc1cc2ccc(=O)oc2c(O)c1O	high bracket
O=c1cc(-c2ccccc2)oc2cc(O)cc(O)c12	low bracket
CC1(C)[C@@H](O)CC[C@]2(C)[C@H]3CC=C4[C@@H]5C[C@@]6(C)C[C@H](OC6=O)[C@]5(C)CC[C@@]4(C)[C@]3(C)CC[C@@H]12 [Wilforlide A]	middle bracket
C=C1C[C@@]23CC[C@H]4[C@@](C)(CCC[C@@]4(C)C(=O)O[C@@H]4O[C@H](CO)[C@@H](O)[C@H](O)[C@H]4O)[C@@H]2CC[C@]1(O[C@@H]1O[C@H](CO)[C@@H](O)[C@H](O)[C@H]1O[C@@H]1O[C@H](CO)[C@@H](O)[C@H](O)[C@H]1O)C3 [Stevioside]	high bracket
O=C[C@H](O)[C@@H](O)[C@H](O)[C@H](O)CO[C@H]1O[C@H](CO[C@H]2O[C@H](CO)[C@H](O)[C@H](O)[C@H]2O)[C@H](O)[C@H](O)[C@H]1O	middle bracket
COc1ccc(/C=C/C(=O)O)cc1O	low bracket
C=C1CCC[C@]2(C)C[C@]3(O)OC(=O)C(C)=C3C[C@@H]12 [Atractylenolide Ⅲ]	middle bracket
COC(=O)[C@H]1O[C@@H](Oc2cc3oc(-c4ccc(O)cc4)cc(=O)c3c(O)c2O)[C@H](O)[C@@H](O)[C@@H]1O	low bracket
CC1(C)CC[C@]2(C(=O)O)CC[C@]3(C)C(=CC[C@@H]4[C@@]5(C)CC[C@H](O[C@@H]6O[C@H](C(=O)O)[C@@H](O)[C@H](O[C@@H]7OC[C@@H](O)[C@H](O)[C@H]7O)[C@H]6O)C(C)(C)[C@@H]5CC[C@]43C)[C@@H]2C1	low bracket
C[C@@H]1[C@H]2[C@H](O[C@@H]3O[C@H](CO)[C@@H](O)[C@H](O)[C@H]3O)OC=C(C(=O)O)[C@H]2C[C@@H]1O	high bracket
O=C(O[C@@H]1Cc2c(O)cc(O)cc2O[C@@H]1c1ccc(O)c(O)c1)c1cc(O)c(O)c(O)c1 [Epicatechin Gallate]	low bracket
